Target: CCR2 (Homo sapiens, UniProt P41597)
Construct: Membranes were prepared from THP-1 cells; endogenous in cells
Sequence (P41597 1-360 isoform P41597-2): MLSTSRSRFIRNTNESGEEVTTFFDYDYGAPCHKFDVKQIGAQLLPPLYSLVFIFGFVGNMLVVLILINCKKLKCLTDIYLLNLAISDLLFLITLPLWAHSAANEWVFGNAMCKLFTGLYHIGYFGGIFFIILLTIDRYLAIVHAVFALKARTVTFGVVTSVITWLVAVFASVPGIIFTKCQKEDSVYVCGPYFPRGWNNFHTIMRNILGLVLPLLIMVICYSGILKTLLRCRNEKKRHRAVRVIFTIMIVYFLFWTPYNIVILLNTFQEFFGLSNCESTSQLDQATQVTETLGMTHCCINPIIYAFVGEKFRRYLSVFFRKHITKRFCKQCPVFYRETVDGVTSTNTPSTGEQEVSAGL
Assay: CCR2 receptor membrane binding assay ([125I]MCP-1, THP-1 membranes, SPA beads)
Settings: THP-1 cell membranes, [125I]MCP-1 displacement, dissociation constant hKi
Measured log10(Ki), listed per entry.
metric: log10(Ki) (log10 of the value in nM)

>  <molecule>
COc1c(NC[C@H]2CCC[C@@H](c3ccccc3)C2)ncnc1C(=O)N1CCC(N[C@@H]2CCOC[C@@H]2OC)CC1

>  <target_desc>
CCR2 (Homo sapiens, UniProt P41597)

>  <log10(Ki)>
1.08

$$$$
>  <molecule>
COc1c(NC[C@@H]2CCC[C@H](c3ccc(Cl)cc3)O2)ncnc1C(=O)N1CCC(N[C@@H]2CCOC[C@@H]2OC)CC1 [Example 10b]

>  <target_desc>
CCR2 (Homo sapiens, UniProt P41597)

>  <log10(Ki)>
2.21

$$$$
>  <molecule>
COc1c(NC[C@@H]2CCC[C@H](c3ccc(Cl)cc3)O2)ncnc1C(=O)N1CCC(N[C@H]2CCOC[C@H]2OC)CC1 [Example 10d]

>  <target_desc>
CCR2 (Homo sapiens, UniProt P41597)

>  <log10(Ki)>
2.08

$$$$
>  <molecule>
COc1c(NC[C@H]2CCC[C@@H](c3ccc(C)cc3)O2)ncnc1C(=O)N1CCC(N2CCC(N(C)S(C)(=O)=O)CC2)CC1

>  <target_desc>
CCR2 (Homo sapiens, UniProt P41597)

>  <log10(Ki)>
1.92

$$$$
>  <molecule>
COc1c(NC[C@H]2CCC[C@@H](c3ccc(C(F)(F)F)cc3)O2)ncnc1C(=O)N1CCC(NC2CCOCC2F)CC1 (some centres unmarked) [Example 10l]

>  <target_desc>
CCR2 (Homo sapiens, UniProt P41597)

>  <log10(Ki)>
0.60

$$$$
>  <molecule>
COc1c(NC[C@H]2CCC[C@@H](c3cccc(C)c3)O2)ncnc1C(=O)N1CCC(N[C@@H]2CCOC[C@@H]2OC)CC1

>  <target_desc>
CCR2 (Homo sapiens, UniProt P41597)

>  <log10(Ki)>
1.40

$$$$
>  <molecule>
COc1c(NC[C@H]2CCC[C@@H](c3ccc(Cl)cc3)O2)ncnc1C(=O)N1CCC(N[C@@H]2CCOC[C@@H]2OC)CC1 [Example 10e]

>  <target_desc>
CCR2 (Homo sapiens, UniProt P41597)

>  <log10(Ki)>
1.00

$$$$
>  <molecule>
COc1c(NC[C@H]2CCC[C@@H](c3ccc(C)cc3)O2)ccnc1C(=O)N1CCC(N[C@H]2CCOC[C@H]2OC)CC1

>  <target_desc>
CCR2 (Homo sapiens, UniProt P41597)

>  <log10(Ki)>
1.11

$$$$
>  <molecule>
COc1c(NC[C@H]2CCC[C@@H](c3ccc(C)cc3)O2)ccnc1C(=O)N1CCC(N[C@@H]2CCOC[C@@H]2OC)CC1

>  <target_desc>
CCR2 (Homo sapiens, UniProt P41597)

>  <log10(Ki)>
1.34

$$$$
>  <molecule>
COc1c(NC[C@@H]2CCC[C@H](c3ccc(Cl)cc3)O2)ncnc1C(=O)N1CCC(N2CCC(N(C)S(C)(=O)=O)CC2)CC1 [Example 10c]

>  <target_desc>
CCR2 (Homo sapiens, UniProt P41597)

>  <log10(Ki)>
2.58

$$$$
>  <molecule>
COc1c(NC[C@H]2CCC[C@@H](c3cccc(C)c3)O2)ncnc1C(=O)N1CCC(N2CCC(N(C)S(C)(=O)=O)CC2)CC1

>  <target_desc>
CCR2 (Homo sapiens, UniProt P41597)

>  <log10(Ki)>
1.86

$$$$
>  <molecule>
COc1c(NCC2CCCC(c3ccccc3)C2)ncnc1C(=O)N1CCC(N2CCC(N(C)S(C)(=O)=O)CC2)CC1 (centres unmarked)

>  <target_desc>
CCR2 (Homo sapiens, UniProt P41597)

>  <log10(Ki)>
1.18

$$$$
>  <molecule>
CN(C1CCN(C2CCN(C(=O)c3ncnc(NC[C@H]4CCC[C@@H](c5ccccc5)C4)c3C3CC3)CC2)CC1)S(C)(=O)=O

>  <target_desc>
CCR2 (Homo sapiens, UniProt P41597)

>  <log10(Ki)>
0.95

$$$$
>  <molecule>
COc1c(NC[C@H]2CCC[C@@H](c3ccccc3)C2)ncnc1C(=O)N1CCC(N2CCC(N(C)S(C)(=O)=O)CC2)CC1

>  <target_desc>
CCR2 (Homo sapiens, UniProt P41597)

>  <log10(Ki)>
0.70

$$$$
>  <molecule>
COc1c(NC[C@H]2CCC[C@@H](c3ccccc3)C2)ncnc1C(=O)N1CCC(NC2CCOCC2OC)CC1 (some centres unmarked)

>  <target_desc>
CCR2 (Homo sapiens, UniProt P41597)

>  <log10(Ki)>
0.70

$$$$
>  <molecule>
COc1c(NC[C@H]2CCC[C@@H](c3ccc(OC(F)(F)F)cc3)O2)ncnc1C(=O)N1CCC(N[C@H]2CCOC[C@H]2OC)CC1 [Example 10j]

>  <target_desc>
CCR2 (Homo sapiens, UniProt P41597)

>  <log10(Ki)>
0.00

$$$$
>  <molecule>
COc1c(NC[C@H]2CCC[C@@H](c3ccc(C(F)(F)F)cc3)O2)ncnc1C(=O)N1CCC(N[C@@H]2CCOC[C@@H]2OC)CC1 [Example 10i]

>  <target_desc>
CCR2 (Homo sapiens, UniProt P41597)

>  <log10(Ki)>
0.48

$$$$
>  <molecule>
COc1c(NC[C@H]2CCC[C@@H](c3ccccc3)C2)ncnc1C(=O)N1CCC(N[C@H]2CCOC[C@H]2OC)CC1

>  <target_desc>
CCR2 (Homo sapiens, UniProt P41597)

>  <log10(Ki)>
0.70

$$$$
>  <molecule>
COc1c(NCc2ccc(C(C)(C)C)cc2)ncnc1C(=O)N1CCC(N2CCC(N(C)S(C)(=O)=O)CC2)CC1 [Example 10a]

>  <target_desc>
CCR2 (Homo sapiens, UniProt P41597)

>  <log10(Ki)>
2.08

$$$$
>  <molecule>
COc1c(NC[C@H]2CCC[C@@H](c3ccccc3)C2)ncnc1C(=O)N1CCC(N(C)C2CCOCC2OC)CC1 (some centres unmarked)

>  <target_desc>
CCR2 (Homo sapiens, UniProt P41597)

>  <log10(Ki)>
1.20

$$$$
>  <molecule>
COc1c(NC[C@H]2CCC[C@@H](c3ccc(Cl)cc3)O2)ncnc1C(=O)N1CCC(N2CCC(N(C)S(C)(=O)=O)CC2)CC1 [Example 10f]

>  <target_desc>
CCR2 (Homo sapiens, UniProt P41597)

>  <log10(Ki)>
1.78

$$$$
>  <molecule>
COc1c(NC[C@H]2CCC[C@@H](c3ccc(C(F)(F)F)cc3)O2)ncnc1C(=O)N1CCC(N[C@H]2CCOC[C@H]2OC)CC1 [Example 10h]

>  <target_desc>
CCR2 (Homo sapiens, UniProt P41597)

>  <log10(Ki)>
0.00

$$$$
>  <molecule>
COc1c(NC[C@H]2CCC[C@@H](c3ccc(C)cc3)O2)ncnc1C(=O)N1CCC(N[C@@H]2CCOC[C@@H]2OC)CC1

>  <target_desc>
CCR2 (Homo sapiens, UniProt P41597)

>  <log10(Ki)>
1.26

$$$$

meta.source: patent US20130143905A1
